The measured values listed here are drawn from patent US20250302832A1.

Molecular target: HiBit-BRG1 fusion protein (Homo sapiens, UniProt P51532)
Construct: expressed in transfected cells
Sequence (P51532 whole entry, the tested form may be a part): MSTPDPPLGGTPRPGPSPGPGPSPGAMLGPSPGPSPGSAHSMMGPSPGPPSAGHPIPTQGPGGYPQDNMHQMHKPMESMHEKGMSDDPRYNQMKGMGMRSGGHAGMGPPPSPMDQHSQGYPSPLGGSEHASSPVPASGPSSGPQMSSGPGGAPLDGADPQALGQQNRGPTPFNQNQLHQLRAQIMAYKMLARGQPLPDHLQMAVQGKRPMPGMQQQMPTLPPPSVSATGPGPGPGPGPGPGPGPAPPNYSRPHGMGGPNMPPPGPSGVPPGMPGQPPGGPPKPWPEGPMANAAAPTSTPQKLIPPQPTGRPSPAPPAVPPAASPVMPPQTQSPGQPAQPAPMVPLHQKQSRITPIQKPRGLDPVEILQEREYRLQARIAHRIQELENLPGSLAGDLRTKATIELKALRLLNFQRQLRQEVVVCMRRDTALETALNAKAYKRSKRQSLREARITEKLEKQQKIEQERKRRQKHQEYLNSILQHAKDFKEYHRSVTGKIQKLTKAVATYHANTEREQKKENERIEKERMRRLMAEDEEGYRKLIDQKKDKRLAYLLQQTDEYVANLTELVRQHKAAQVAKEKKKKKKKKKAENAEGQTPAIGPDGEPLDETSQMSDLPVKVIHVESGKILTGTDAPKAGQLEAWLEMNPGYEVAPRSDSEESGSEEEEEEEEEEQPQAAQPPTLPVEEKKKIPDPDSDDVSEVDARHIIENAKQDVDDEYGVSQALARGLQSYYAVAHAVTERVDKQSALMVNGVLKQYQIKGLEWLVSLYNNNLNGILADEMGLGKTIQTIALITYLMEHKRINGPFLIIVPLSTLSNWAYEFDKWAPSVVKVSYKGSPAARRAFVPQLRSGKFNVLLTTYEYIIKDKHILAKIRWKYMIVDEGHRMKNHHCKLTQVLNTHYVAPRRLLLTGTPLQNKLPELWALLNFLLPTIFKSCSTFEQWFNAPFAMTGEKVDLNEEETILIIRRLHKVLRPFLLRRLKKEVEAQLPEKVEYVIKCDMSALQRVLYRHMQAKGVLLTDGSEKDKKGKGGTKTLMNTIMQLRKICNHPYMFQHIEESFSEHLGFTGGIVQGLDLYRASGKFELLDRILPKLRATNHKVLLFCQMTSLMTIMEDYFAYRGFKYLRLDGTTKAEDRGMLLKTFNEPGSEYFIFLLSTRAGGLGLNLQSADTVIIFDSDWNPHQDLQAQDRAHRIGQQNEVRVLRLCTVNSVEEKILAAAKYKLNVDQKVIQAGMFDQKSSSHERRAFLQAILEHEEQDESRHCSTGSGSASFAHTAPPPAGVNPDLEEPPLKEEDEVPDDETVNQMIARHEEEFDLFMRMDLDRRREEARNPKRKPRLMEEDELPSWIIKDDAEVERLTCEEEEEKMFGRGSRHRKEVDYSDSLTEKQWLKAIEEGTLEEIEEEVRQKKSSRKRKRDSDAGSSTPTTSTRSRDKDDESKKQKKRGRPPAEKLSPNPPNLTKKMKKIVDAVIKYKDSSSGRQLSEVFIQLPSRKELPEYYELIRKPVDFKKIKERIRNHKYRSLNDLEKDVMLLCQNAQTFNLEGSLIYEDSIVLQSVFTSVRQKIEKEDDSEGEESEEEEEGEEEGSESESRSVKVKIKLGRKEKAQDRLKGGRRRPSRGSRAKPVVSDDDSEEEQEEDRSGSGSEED
Experiment: HiBiT-BRG1 cell-based degradation assay (Nano-Glo HiBiT lytic detection, 24 h)
Conditions: HeLa cell line expressing HiBit-BRG1 and LgBit, read-out: BRG1 HiBit Degradation Maximum (%)
Experimental: Procedure: A stable HeLa cell line expressing HiBiT-BRM was generated. On day 0, 5000 cells were seeded in 40 μL of media into each well of 384-well cell culture plates. […] The plates were shaken for 10 minutes at room temperature and the bioluminescence read using an EnVision plate reader (PerkinElmer). […] The degradation % was calculated using the following formula: % degradation=100%−100%×(Lumsample−LuMLC)/(LuMHC−LuMLC). […]
Dmax values by entry
Assay Readout: Dmax

INSERT INTO measurements (smiles_str, measured_value) VALUES
  ('Cc1ncsc1-c1ccc([C@H](C)NC(=O)[C@@H]2C[C@@H](O)CN2C(=O)[C@@H](c2cc(N3CC4(CC(c5cc6nnc(-c7ccccc7O)cc6n5C5(CF)CC5)C4)C3)no2)C(C)C)cc1', '< 50%'),
  ('Cc1ncsc1-c1ccc([C@H](C)NC(=O)[C@@H]2C[C@@H](O)CN2C(=O)[C@H](c2cc(-c3ccnc(N4CC[C@H](c5cc6nnc(-c7ccccc7O)cc6n5C5CC5)C4)n3)no2)C(C)C)cc1', '< 50%'),
  ('CC(C)[C@@H](C(=O)N1C[C@H](O)C[C@H]1C(=O)N[C@@H](C)c1ccc(F)cc1)c1cc(N2CC3(CC(c4cc5nnc(-c6ccccc6O)cc5n4C4CCC4)C3)C2)no1', '< 50%'),
  ('Cc1ncsc1-c1ccc([C@H](C)NC(=O)[C@@H]2C[C@@H](O)CN2C(=O)[C@@H](c2cc(-c3cnc(N4CC5(CC(c6cc7nnc(-c8ccccc8O)cc7n6C6CCC6)C5)C4)nc3)no2)C(C)C)cc1', '> 50%'),
  ('Cc1ncsc1-c1ccc([C@H](C)NC(=O)[C@@H]2C[C@@H](O)CN2C(=O)[C@H](c2cc(-c3cnc(N4CCN(c5cc6nnc(-c7ccccc7O)cc6n5C)CC4)nc3)no2)C(C)C)cc1', '< 50%'),
  ('Cc1ncsc1-c1ccc([C@H](C)NC(=O)[C@@H]2C[C@@H](O)CN2C(=O)[C@@H](c2cc(-c3ccnc(N4CC[C@@H](c5cc6nnc(-c7ccccc7O)cc6n5C5CC5)C4)n3)no2)C(C)C)cc1', '< 50%'),
  ('Cc1ncsc1-c1ccc([C@H](C)NC(=O)[C@@H]2C[C@@H](O)CN2C(=O)[C@@H](c2cc(N3CCC(C(=O)N4CC(c5cc6nnc(-c7ccccc7O)cc6n5C)C4)CC3)no2)C(C)C)cc1', '> 50%'),
  ('Cc1ncsc1-c1ccc([C@H](C)NC(=O)[C@@H]2C[C@@H](O)CN2C(=O)[C@@H](c2cc(N3CCC(N4CC(c5cc6nnc(-c7ccccc7O)cc6n5C)C4)CC3)no2)C(C)C)cc1', '> 75%'),
  ('Cc1ncsc1-c1ccc([C@H](C)NC(=O)[C@@H]2C[C@@H](O)CN2C(=O)[C@@H](C(C)C)n2cc(-c3cnc(N4CC[C@@H](c5cc6nnc(-c7ccccc7O)cc6n5C5CC5)C4)nc3)nn2)cc1', '< 50%');
